MEASUREMENT_PROTOCOL: activity coefficient (dimensionless); of the first substance listed, at infinite dilution; xn = mol fraction of the nth substance listed
EXPERIMENTAL_PARAMETERS: 433.15 K; 101 kPa; Liquid; Chromatography; x1 = 0
MEASURE: activity coefficient

Check out these entries, answers already filled in.
C=CCCCCC [1-heptene] + CCCCCCCCCCCCCCCCCCC(CCCCCCCCCCCCCCCCCC)CCCCC(CCCCCCCCCCCCCCCCCC)CCCCCCCCCCCCCCCCCC | 0.359
CCCCCCC [heptane] + CCCCCCCCCCCCCCCCCCC(CCCCCCCCCCCCCCCCCC)CCCCC(CCCCCCCCCCCCCCCCCC)CCCCCCCCCCCCCCCCCC | 0.37
CC(C)C(C)C(C)C [2,3,4-trimethylpentane] + CCCCCCCCCCCCCCCCCCC(CCCCCCCCCCCCCCCCCC)CCCCC(CCCCCCCCCCCCCCCCCC)CCCCCCCCCCCCCCCCCC | 0.362
CCCc1ccccc1 [propylbenzene] + CCCCCCCCCCCCCCCCCCC(CCCCCCCCCCCCCCCCCC)CCCCC(CCCCCCCCCCCCCCCCCC)CCCCCCCCCCCCCCCCCC | 0.33

A = CC1CCCCC1 [methylcyclohexane] + CCCCCCCCCCCCCCCCCCC(CCCCCCCCCCCCCCCCCC)CCCCC(CCCCCCCCCCCCCCCCCC)CCCCCCCCCCCCCCCCCC
B = C=CCCCCCCCCCCC [1-tridecene] + CCCCCCCCCCCCCCCCCCC(CCCCCCCCCCCCCCCCCC)CCCCC(CCCCCCCCCCCCCCCCCC)CCCCCCCCCCCCCCCCCC
Could you determine which record has the numerically smaller activity coefficient? Candidates: A and B Answer with the label corresponding to your selection.
A

====

MEASUREMENT_PROTOCOL: activity coefficient (dimensionless); of the first substance listed, at infinite dilution; xn = mol fraction of the nth substance listed
EXPERIMENTAL_PARAMETERS: 373.15 K; 101 kPa; Liquid; Chromatography; x1 = 0
MEASURE: activity coefficient

C1=CCCCC1 [cyclohexene] + CCCCCCCCCCCCCCCCCCC(CCCCCCCCCCCCCCCCCC)CCCCC(CCCCCCCCCCCCCCCCCC)CCCCCCCCCCCCCCCCCC | 0.239
CCCCCCC [heptane] + CCCCCCCCCCCCCCCCCCC(CCCCCCCCCCCCCCCCCC)CCCCC(CCCCCCCCCCCCCCCCCC)CCCCCCCCCCCCCCCCCC | 0.361
C1C2CC3CC1CC(C2)C3 [adamantane] + CCCCCCCCCCCCCCCCCCC(CCCCCCCCCCCCCCCCCC)CCCCC(CCCCCCCCCCCCCCCCCC)CCCCCCCCCCCCCCCCCC | 0.337

a = C[C@@H]1CCCC[C@H]1C [trans-1,2-dimethylcyclohexane] + CCCCCCCCCCCCCCCCCCC(CCCCCCCCCCCCCCCCCC)CCCCC(CCCCCCCCCCCCCCCCCC)CCCCCCCCCCCCCCCCCC
b = C=CCCCCCCCCC [1-undecene] + CCCCCCCCCCCCCCCCCCC(CCCCCCCCCCCCCCCCCC)CCCCC(CCCCCCCCCCCCCCCCCC)CCCCCCCCCCCCCCCCCC
Could you determine which record has the numerically smaller activity coefficient? Candidates: a and b Answer with the label corresponding to your selection.
a
(a: 0.28, b: 0.435)
